assay: Inhibition of bovine liver beta-galactosidase assessed as reduction of p-nitrophenol release using p-nitrophenyl glycoside as substrate by spectrophotometric analysis; parameters: species or system Bos taurus
pIC50: −log10 of the molar value.
Label T for high-side pIC50 (at or above 7) and F for low-side pIC50 (below it).

These recorded examples may help you get a feel for the data.
- smiles.str: "Cc1ccc(CCCCCC[C@H](O)[C@@H]2N[C@@H](CO)[C@H](O)[C@H]2O)cc1"
  assigned.category: "F"
- smiles.str: "OC[C@@H]1N[C@@H]([C@@H](O)CCCCCCc2ccc(F)cc2)[C@H](O)[C@H]1O"
  assigned.category: "F"
- smiles.str: "OC[C@@H]1N[C@@H]([C@@H](O)CCCCCCc2ccc(Cl)cc2)[C@H](O)[C@H]1O"
  assigned.category: "F"
- smiles.str: "OC[C@H]1N[C@H]([C@@H](O)CCCCCCc2ccccc2)[C@@H](O)[C@@H]1O"
  assigned.category: "T"

Query: Entry "Cl.OC[C@H]1N[C@H](CCCCCCCc2cccc(F)c2)[C@@H](O)[C@@H]1O" : is its pIC50 no less than 7?
Result: T

Query: Entry "OC[C@@H]1N[C@@H]([C@H](O)CCCCCCc2ccc(F)cc2)[C@H](O)[C@H]1O" : is its pIC50 no less than 7?
Result: F

###

Recorded pIC50, one value per entry.
experiment: Inhibition of bovine liver beta-galactosidase assessed as reduction of p-nitrophenol release using p-nitrophenyl glycoside as substrate by spectrophotometric analysis; design: species or system Bos taurus
Kindly note that pIC50 refers to -log10 of the concentration in mol/L and answer with the value alone.

The following compounds have reported results that may help.
- smiles.str: "CC(C)(C)c1ccc(CCCCCCC[C@H]2N[C@H](CO)[C@@H](O)[C@@H]2O)cc1.Cl"
  pIC50: 8.30
- smiles.str: "Cl.OC[C@@H]1N[C@@H]([C@@H](O)CCCCCCc2ccc(F)c(F)c2)[C@H](O)[C@H]1O"
  pIC50: 5.44
- smiles.str: "OC[C@H]1N[C@H](CCCCCCCc2ccc(F)c(F)c2F)[C@@H](O)[C@@H]1O"
  pIC50: 8.10

Query: Give its pIC50 value. Item: "OC[C@H]1N[C@H]([C@@H](O)CCCCCCc2ccc(F)cc2)[C@@H](O)[C@@H]1O"
Result: 7.60

Query: Give its pIC50 value. Item: "OC[C@H]1N[C@H]([C@@H](O)CCCCCCc2ccc(F)c(F)c2)[C@@H](O)[C@@H]1O"
Result: 7.59

###

Biological target: Tissue alpha-L-fucosidase (Bos taurus) (UniProt Q2KIM0)
Sequence (whole entry): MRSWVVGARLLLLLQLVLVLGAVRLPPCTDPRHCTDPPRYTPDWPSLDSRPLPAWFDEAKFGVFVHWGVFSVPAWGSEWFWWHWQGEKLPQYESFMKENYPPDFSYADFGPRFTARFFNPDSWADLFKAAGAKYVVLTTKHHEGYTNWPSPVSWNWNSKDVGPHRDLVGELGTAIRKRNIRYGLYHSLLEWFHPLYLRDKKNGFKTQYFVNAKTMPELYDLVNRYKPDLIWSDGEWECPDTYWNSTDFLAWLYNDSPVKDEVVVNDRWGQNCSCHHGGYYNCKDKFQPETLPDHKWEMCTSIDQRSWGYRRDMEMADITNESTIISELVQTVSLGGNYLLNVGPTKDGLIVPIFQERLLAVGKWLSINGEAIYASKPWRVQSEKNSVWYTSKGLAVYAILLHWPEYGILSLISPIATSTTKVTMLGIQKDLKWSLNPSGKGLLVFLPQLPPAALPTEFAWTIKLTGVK
Assay: Inhibition of bovine kidney alpha-L-fucosidase assessed as reduction of p-nitrophenol release using p-nitrophenyl glycoside as substrate at 1000 uM by spectrophotometric analysis relative to control
readout: inhibition (%)
# unit: % | format: bare number

- smiles.str: "OC[C@@H]1N[C@@H]([C@H](O)CCCCCCc2ccc(Cl)cc2)[C@H](O)[C@H]1O"
  experimental.system: "Tissue alpha-L-fucosidase (Bos taurus) (UniProt Q2KIM0)"
  inhibition, %: 0
- smiles.str: "OC[C@H]1N[C@H](CCCCCCCc2ccccc2)[C@@H](O)[C@H]1O"
  experimental.system: "Tissue alpha-L-fucosidase (Bos taurus) (UniProt Q2KIM0)"
  inhibition, %: 32.7

Query: Give its inhibition value. Item: "OC[C@@H]1N[C@@H]([C@H](O)CCCCCCc2ccc(F)cc2)[C@H](O)[C@H]1O"
Result: 1.5

Query: Give its inhibition value. Item: "Cl.OC[C@H]1N[C@H](CCCCCCCc2ccc(Cl)cc2)[C@@H](O)[C@@H]1O"
Result: 0

###

Recorded pIC50, one value per entry.
test: Inhibition of bovine liver beta-glucosidase assessed as reduction of p-nitrophenol release using p-nitrophenyl glycoside as substrate by spectrophotometric analysis; design: species or system Bos taurus
Kindly note that pIC50 refers to -log10 of the concentration in mol/L and answer with the value alone.

The following molecules have reported results that may help.
- smiles.str: "OC[C@H]1N[C@H]([C@@H](O)CCCCCCc2ccc(F)cc2)[C@@H](O)[C@@H]1O"
  pIC50: 7.05
- smiles.str: "O=C1CCCC=C1CCCCCCC[C@H]1N[C@H](CO)[C@@H](O)[C@@H]1O"
  pIC50: 6.92
- smiles.str: "OC[C@H]1N[C@H]([C@@H](O)CCCCCCc2ccc(F)c(F)c2)[C@@H](O)[C@@H]1O"
  pIC50: 7.05
- smiles.str: "Cl.OC[C@H]1N[C@H]([C@@H](O)CCCCCCc2ccc(Cl)cc2)[C@@H](O)[C@@H]1O"
  pIC50: 7.15

Query: Give its pIC50 value. Item: "OC[C@H]1N[C@H](CCCCCCCc2ccccc2)[C@@H](O)[C@@H]1O"
Result: 6.92

###

target: UniProtKB Q2KIM0; test: Inhibition of bovine kidney alpha-L-fucosidase assessed as reduction of p-nitrophenol release using p-nitrophenyl glycoside as substrate at 1000 uM by spectrophotometric analysis relative to control
readout: inhibition (%)
# unit: % | format: bare number

- smiles.str: "OC[C@H]1N[C@H]([C@@H](O)CCCCCCc2ccc(F)cc2)[C@@H](O)[C@@H]1O"
  experimental.system: "UniProtKB Q2KIM0"
  readout: "inhibition"
  obs.value: 1.5

Query: I'm curious: which inhibition was measured for "OC[C@H]1N[C@H]([C@@H](O)CCCCCCc2ccc(F)c(F)c2)[C@@H](O)[C@@H]1O" tested on UniProtKB Q2KIM0?
Result: 0.3

Query: I'm curious: which inhibition was measured for "Cc1ccc(CCCCCC[C@H](O)[C@@H]2N[C@@H](CO)[C@H](O)[C@H]2O)cc1" tested on UniProtKB Q2KIM0?
Result: 5.9

Query: I'm curious: which inhibition was measured for "CC(C)(C)c1ccc(CCCCCC[C@H](O)[C@H]2N[C@H](CO)[C@@H](O)[C@@H]2O)cc1" tested on UniProtKB Q2KIM0?
Result: 0

Query: I'm curious: which inhibition was measured for "Cl.OC[C@H]1N[C@H]([C@@H](O)CCCCCCc2ccc(Cl)cc2)[C@@H](O)[C@@H]1O" tested on UniProtKB Q2KIM0?
Result: 2.1

###

test system: Oryza sativa; assay: Inhibition of rice alpha-glucosidase assessed as reduction of p-nitrophenol release using p-nitrophenyl glycoside as substrate at 1000 uM by spectrophotometric analysis relative to control
Recorded inhibition, one value per entry.
# unit: % | format: bare number

The following compounds have reported results that may help.
- smiles.str: "Cc1ccc(CCCCCC[C@@H](O)[C@H]2N[C@H](CO)[C@@H](O)[C@@H]2O)cc1"
  experimental.system: "Oryza sativa"
  inhibition (%): 15
- smiles.str: "OC[C@H]1N[C@H]([C@H](O)CCCCCCc2ccc(Cl)cc2)[C@@H](O)[C@@H]1O"
  experimental.system: "Oryza sativa"
  inhibition (%): 8.9
- smiles.str: "OC[C@H]1N[C@H]([C@@H](O)CCCCCCc2ccccc2)[C@@H](O)[C@@H]1O"
  experimental.system: "Oryza sativa"
  inhibition (%): 15.8
- smiles.str: "Cl.OC[C@H]1N[C@H](CCCCCCCc2cccc(F)c2)[C@@H](O)[C@@H]1O"
  experimental.system: "Oryza sativa"
  inhibition (%): 21.3

// next entry
Query: Give its inhibition value. Item: "Cl.OC[C@H]1N[C@H](CCCCCCCc2ccc(F)cc2)[C@@H](O)[C@@H]1O"
Result: 11.7

###

target: Alpha-mannosidase (Canavalia ensiformis) (UniProt C0HJB3); test: Inhibition of jack bean alpha-mannosidase assessed as reduction of p-nitrophenol release using p-nitrophenyl glycoside as substrate at 1000 uM by spectrophotometric analysis relative to control
Sequence (C0HJB3 1-562 limits assumed): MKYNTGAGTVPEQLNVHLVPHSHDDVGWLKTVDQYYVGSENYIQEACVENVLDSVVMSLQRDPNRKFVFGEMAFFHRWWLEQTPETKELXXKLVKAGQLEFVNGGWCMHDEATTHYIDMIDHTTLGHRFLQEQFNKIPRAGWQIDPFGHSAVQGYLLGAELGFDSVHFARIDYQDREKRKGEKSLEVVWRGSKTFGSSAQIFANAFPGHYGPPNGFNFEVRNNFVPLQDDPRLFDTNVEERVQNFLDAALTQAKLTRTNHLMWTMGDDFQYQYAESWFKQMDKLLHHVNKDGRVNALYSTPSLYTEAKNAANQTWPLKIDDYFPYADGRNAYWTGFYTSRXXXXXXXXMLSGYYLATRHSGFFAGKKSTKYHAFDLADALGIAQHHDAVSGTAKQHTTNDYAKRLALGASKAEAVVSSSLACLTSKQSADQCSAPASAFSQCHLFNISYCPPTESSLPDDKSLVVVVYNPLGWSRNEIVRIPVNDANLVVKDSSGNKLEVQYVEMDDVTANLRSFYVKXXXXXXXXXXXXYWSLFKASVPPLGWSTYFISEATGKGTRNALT
Sequence (C0HJB3 563-981 limits assumed): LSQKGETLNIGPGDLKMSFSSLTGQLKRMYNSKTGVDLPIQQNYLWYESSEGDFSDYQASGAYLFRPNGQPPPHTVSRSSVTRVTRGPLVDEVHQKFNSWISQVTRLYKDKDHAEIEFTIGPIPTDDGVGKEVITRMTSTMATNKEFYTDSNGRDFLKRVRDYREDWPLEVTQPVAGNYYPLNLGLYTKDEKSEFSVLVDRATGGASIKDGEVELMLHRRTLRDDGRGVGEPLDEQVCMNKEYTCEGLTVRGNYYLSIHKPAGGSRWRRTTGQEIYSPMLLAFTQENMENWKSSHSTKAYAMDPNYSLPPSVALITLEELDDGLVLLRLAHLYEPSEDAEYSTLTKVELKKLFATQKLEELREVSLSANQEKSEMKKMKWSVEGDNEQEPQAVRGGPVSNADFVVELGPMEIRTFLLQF
Recorded inhibition, one value per entry.
# unit: % | format: bare number

- smiles.str: "Cl.OC[C@H]1N[C@H](CCCCCCCc2ccc(Cl)cc2)[C@@H](O)[C@@H]1O"
  inhibition, %: 0
- smiles.str: "Cc1ccc(CCCCCC[C@@H](O)[C@@H]2N[C@@H](CO)[C@H](O)[C@H]2O)cc1"
  inhibition, %: 9.3
- smiles.str: "Cl.OC[C@H]1N[C@H]([C@H](O)CCCCCCc2ccc(F)cc2)[C@@H](O)[C@@H]1O"
  inhibition, %: 13.9
- smiles.str: "OC[C@H]1N[C@H]([C@@H](O)CCCCCCc2ccc(F)cc2)[C@@H](O)[C@@H]1O"
  inhibition, %: 0
- smiles.str: "Cl.OC[C@H]1N[C@H](CCCCCCCc2cccc(F)c2)[C@@H](O)[C@@H]1O"
  inhibition, %: 3.1

Query: Give its inhibition value. Item: "Cc1ccc(CCCCCC[C@H](O)[C@@H]2N[C@@H](CO)[C@H](O)[C@H]2O)cc1"
Result: 7.9

Query: Give its inhibition value. Item: "OC[C@@H]1N[C@@H]([C@H](O)CCCCCCc2ccc(Cl)cc2)[C@H](O)[C@H]1O"
Result: 0.8
